Data credit: patent US20080214558A1

The compounds listed here are annotated with their IC50.
Target: JAK2 V617F (Homo sapiens, UniProt O60674, V617F)
Construct: These enzymes include both the JH1 and JH2 homology regions of the protein; purchased Invitrogen Corporation (SelectScreen assay service, Carlsbad, Calif.)
Sequence (O60674 532-1132 V617F limits assumed): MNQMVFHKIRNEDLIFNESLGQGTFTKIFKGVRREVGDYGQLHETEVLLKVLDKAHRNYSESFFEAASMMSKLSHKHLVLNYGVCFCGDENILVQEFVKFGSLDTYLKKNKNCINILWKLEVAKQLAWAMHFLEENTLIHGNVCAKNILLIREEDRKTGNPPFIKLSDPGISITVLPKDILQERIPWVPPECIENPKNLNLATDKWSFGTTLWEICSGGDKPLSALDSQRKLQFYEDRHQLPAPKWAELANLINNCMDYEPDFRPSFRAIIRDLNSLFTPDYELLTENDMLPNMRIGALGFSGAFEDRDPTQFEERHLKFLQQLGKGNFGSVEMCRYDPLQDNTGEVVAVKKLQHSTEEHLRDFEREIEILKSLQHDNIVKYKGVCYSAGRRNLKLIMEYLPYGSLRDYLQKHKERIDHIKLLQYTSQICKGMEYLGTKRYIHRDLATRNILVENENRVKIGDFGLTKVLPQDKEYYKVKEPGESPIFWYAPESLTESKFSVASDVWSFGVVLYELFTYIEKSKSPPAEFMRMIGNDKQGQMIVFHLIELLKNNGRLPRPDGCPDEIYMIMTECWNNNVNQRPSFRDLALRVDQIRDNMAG
Test: Invitrogen SelectScreen profiling, mutant JAK2
Assay type: biochemical
Settings: read-out: IC50 against mutant JAK2 V617F (SelectScreen)

// worked examples, IC50 included
{"Smiles code": "CN1CCN(c2ccc(Nc3nccc(Nc4ccc(F)c(Cl)c4)n3)cc2)CC1", "IC50": "< 1000 nM"}
{"Smiles code": "CN1CCN(c2ccc(Nc3nccc(Nc4cccc(CC#N)c4)n3)cc2F)CC1", "IC50": "< 1000 nM"}
{"Smiles code": "CN1CCN(c2ccc(Nc3nccc(Nc4cccc(CC#N)c4)n3)cc2)CC1", "IC50": "< 1000 nM"}

Lab book: IC50 of CN1CCN(C(=O)c2ccc(Nc3nccc(Nc4cccc(CC#N)c4)n3)cc2)CC1 noted as < 1000 nM
